Inhibition of binding (%) values for the binders below.
molecular target: T1, hCMV gB (expressed in HEK293T cells) (human cytomegalovirus, UniProt P06473 32-906); assay: competitor: 6B4-biotin; cell staining
T1 construct: whole, on cells; also called envelope glycoprotein B; UL55
T1 sequence (P06473 32-906 limits assumed): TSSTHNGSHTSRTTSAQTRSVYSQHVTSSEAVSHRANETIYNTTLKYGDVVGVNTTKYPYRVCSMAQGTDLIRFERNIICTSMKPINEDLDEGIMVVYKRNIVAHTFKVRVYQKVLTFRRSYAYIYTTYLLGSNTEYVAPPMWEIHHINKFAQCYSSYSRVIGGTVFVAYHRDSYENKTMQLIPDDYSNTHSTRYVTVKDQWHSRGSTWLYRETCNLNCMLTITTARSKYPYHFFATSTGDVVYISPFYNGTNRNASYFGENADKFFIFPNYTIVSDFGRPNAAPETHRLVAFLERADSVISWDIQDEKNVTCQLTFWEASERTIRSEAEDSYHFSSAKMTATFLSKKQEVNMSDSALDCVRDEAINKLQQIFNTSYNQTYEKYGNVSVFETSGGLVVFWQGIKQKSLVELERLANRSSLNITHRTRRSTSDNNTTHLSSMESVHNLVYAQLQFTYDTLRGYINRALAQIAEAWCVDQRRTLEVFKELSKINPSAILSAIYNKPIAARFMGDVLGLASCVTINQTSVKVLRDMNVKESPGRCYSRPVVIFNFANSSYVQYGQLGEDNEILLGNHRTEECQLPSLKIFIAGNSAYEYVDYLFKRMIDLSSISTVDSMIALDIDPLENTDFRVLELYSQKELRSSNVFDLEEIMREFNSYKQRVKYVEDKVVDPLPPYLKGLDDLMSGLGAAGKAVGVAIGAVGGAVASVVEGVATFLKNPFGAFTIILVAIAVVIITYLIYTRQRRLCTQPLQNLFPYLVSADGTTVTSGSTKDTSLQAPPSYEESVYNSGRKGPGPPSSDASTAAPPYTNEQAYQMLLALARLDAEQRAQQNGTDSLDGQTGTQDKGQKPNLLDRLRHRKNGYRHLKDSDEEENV
# value in %; strip the unit string

Solved cases below.
1) 2B11 (antibody, V domains shown, human IgG; also called 2B11-biotin) VH: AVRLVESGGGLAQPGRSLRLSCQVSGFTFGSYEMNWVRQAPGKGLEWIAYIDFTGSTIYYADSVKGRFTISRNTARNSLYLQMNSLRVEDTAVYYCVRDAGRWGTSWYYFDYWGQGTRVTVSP VL: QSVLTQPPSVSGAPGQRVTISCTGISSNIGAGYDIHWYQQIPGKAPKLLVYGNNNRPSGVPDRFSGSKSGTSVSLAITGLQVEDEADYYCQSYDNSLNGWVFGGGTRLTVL | 0
2) 5F1 (antibody, V domains shown, human IgG; also called 5F1-biotin) VH: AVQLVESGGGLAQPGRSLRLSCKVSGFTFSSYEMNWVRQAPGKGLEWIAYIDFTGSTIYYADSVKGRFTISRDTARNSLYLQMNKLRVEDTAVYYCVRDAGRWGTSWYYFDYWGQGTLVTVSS VL: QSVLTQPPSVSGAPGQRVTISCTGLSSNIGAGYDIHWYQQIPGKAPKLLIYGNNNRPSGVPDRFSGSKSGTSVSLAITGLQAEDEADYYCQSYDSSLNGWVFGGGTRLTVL | 0

Query binder follows.
Quick note, Inhibition of binding (%) for 10C6 (antibody, V domains shown, human IgG; also called 10C6-biotin) VH: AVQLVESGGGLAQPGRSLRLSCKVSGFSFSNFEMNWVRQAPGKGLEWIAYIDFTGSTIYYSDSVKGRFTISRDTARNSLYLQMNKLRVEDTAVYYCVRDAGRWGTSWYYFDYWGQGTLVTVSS VL: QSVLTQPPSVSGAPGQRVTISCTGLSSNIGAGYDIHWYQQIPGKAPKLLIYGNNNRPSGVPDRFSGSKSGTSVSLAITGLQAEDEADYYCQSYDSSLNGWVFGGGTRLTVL landed at 0

Origin of measurements: patent US20170129940A1
